Target: GDP-bound KRAS wild-type protein (Homo sapiens, UniProt P01116)
Sequence (P01116 whole entry): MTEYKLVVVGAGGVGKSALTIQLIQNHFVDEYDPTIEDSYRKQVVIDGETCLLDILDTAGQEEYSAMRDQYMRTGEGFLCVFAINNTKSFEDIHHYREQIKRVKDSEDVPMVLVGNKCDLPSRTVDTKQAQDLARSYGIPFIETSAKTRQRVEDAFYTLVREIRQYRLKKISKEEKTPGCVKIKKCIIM
Assay: Binding to KRAS by surface plasmon resonance (SPR), Single Cycle Kinetics
Settings: SPR Single Cycle Kinetics, GDP-bound KRAS wild-type protein, 1:1 binding model; read-out: KRAS KD
readout type: Kd
Answer with the value and then the unit.

Worked examples, 2 compounds total:
Prompt: Would you kindly share the measured Kd for CC[C@H](C)[C@@H]1NC(=O)[C@H](CC(C)C)N(C)C(=O)C[C@@H](C(=O)N2CCOCC2)N(C)C(=O)[C@H](C2CCCC2)N(C)C(=O)C2(CCCC2)NC(=O)[C@@H]2CCCN2C(=O)[C@H](CCc2ccc(C(F)(F)F)c(Cl)c2)NC(=O)CN(C)C(=O)[C@H](Cc2ccc(OC)cc2)N2CC=CC[C@@H](C2=O)N(C)C(=O)CN(C)C1=O ?
Completion: 0.5 nM

Prompt: Moving on to CC[C@H](C)[C@@H]1NC(=O)[C@H](CC)N(C)C(=O)C[C@@H](C(=O)N(C)C)N(C)C(=O)[C@H](C2CCCC2)N(C)C(=O)C2(CCC2)NC(=O)[C@@H]2CCCCN2C(=O)[C@H](CCc2cc(F)c(C(F)(F)F)c(F)c2)NC(=O)CN(C)C(=O)[C@H](Cc2ccc(C(F)(F)F)cc2)N2CCCCC[C@@H](C2=O)N(C)C(=O)CN(C)C1=O
Completion: 1.9 nM

Others:
Prompt: Would you kindly share the measured Kd for CCO[C@@H]1C[C@H]2C(=O)NC3(CCC3)C(=O)N(C)[C@@H](C3CCCC3)C(=O)N(CCC3CCCC3)[C@H](C(=O)N(C)C)CC(=O)N(C)[C@@H](CC)C(=O)N[C@@H]([C@@H](C)CC)C(=O)N(C)CC(=O)N(C)[C@H]3CCCCN(C3=O)[C@@H](Cc3ccc(C(F)(F)F)cc3)C(=O)N(C)CC(=O)N[C@@H](CCc3cc(F)c(C(F)(F)F)c(F)c3)C(=O)N2C1 ?
Completion: 0.14 nM
